Biological target: hMAO-B (Homo sapiens, UniProt P27338)
Sequence (P27338 1-520): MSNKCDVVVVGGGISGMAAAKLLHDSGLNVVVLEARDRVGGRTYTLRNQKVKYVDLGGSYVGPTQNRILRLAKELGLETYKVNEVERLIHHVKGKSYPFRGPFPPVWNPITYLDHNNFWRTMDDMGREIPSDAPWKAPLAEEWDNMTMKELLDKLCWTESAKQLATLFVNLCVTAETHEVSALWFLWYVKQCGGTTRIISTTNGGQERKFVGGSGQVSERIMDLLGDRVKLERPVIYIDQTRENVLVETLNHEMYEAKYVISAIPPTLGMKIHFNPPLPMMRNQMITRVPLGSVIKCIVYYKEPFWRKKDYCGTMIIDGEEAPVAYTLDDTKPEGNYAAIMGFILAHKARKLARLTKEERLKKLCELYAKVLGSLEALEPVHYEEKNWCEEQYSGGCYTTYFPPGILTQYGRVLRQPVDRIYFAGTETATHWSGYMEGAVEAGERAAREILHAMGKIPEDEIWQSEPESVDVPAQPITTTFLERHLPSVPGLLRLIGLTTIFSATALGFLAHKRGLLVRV
Assay: hMAO inhibition assay (Amplex Red fluorescence), hMAO-B, benzylamine substrate
Assay type: biochemical
Settings: SI = IC50 (hMAO-A)/IC50 (hMAO-B)
Experimental Readout: Selectivity Index (SI)

Smiles Data	Selectivity Index (SI)
O=C(/C=C/c1ccc2c(c1)OCCO2)c1cccc(Br)c1	>727

Input: Recorded Selectivity Index (SI) for "O=C(/C=C/c1ccc2c(c1)OCCO2)c1ccccc1Br" , please?
Output: >494

Input: Selectivity Index (SI) for "COc1cccc(C(=O)/C=C/c2ccc3c(c2)OCCO3)c1" ?
Output: >118

Input: Entry under review: "O=C(/C=C/c1ccc2c(c1)OCCO2)c1cc(Cl)ccc1O" . Reported Selectivity Index (SI)?
Output: >125

Input: Form field: reported Selectivity Index (SI) of "O=C(/C=C/c1ccc2c(c1)OCCO2)c1cccc(F)c1"
Output: >308

Input: # Selectivity Index (SI) lookup, item "O=C(/C=C/c1ccc2c(c1)OCCO2)c1ccc(F)cc1"
Output: >588

Input: Selectivity Index (SI) for "O=C(/C=C/c1ccc2c(c1)OCCO2)c1cccc(Cl)c1" ?
Output: >702

Input: Entry "O=C(/C=C/c1ccc2c(c1)OCCO2)c1cc(Br)ccc1O" has what Selectivity Index (SI)?
Output: >160

Input: // lookup Selectivity Index (SI) for "O=C(/C=C/c1ccc2c(c1)OCCO2)c1ccc(Cl)c(Cl)c1"
Output: >235

Input: // Selectivity Index (SI) lookup, key: "O=C(/C=C/c1ccc2c(c1)OCCO2)c1cccc(O)c1"
Output: >267

* * *

Overview of reported IC80 across a group of compounds:
Biological target: hMAO-B (Homo sapiens, UniProt P27338)
Test: Reversibility study: time-dependent inhibition of hMAO-B
Type: biochemical
Conditions: compounds used at the concentration of their IC80
Description: Control experiments without inhibitors were run simultaneously. The enzymatic activity was determined as described above. The percentage of enzyme activity was plotted against the incubation time to determine time-dependent enzyme inhibition.

Sample answers from the record:
Compound	Target System	IC80
O=C(/C=C/c1ccc2c(c1)OCCO2)c1ccc(F)c(Br)c1 [Compound 22]	hMAO-B (Homo sapiens, UniProt P27338)	190 nM
O=C(/C=C/c1ccc2c(c1)OCCO2)c1cccc(Br)c1 [Compound 16]	hMAO-B (Homo sapiens, UniProt P27338)	280 nM
C[C@H](NCc1ccc(OCc2cccc(F)c2)cc1)C(N)=O [safinamide, reference compound]	hMAO-B (Homo sapiens, UniProt P27338)	60 nM
C#CCN[C@@H]1CCc2ccccc21 [rasagiline, reference compound]	hMAO-B (Homo sapiens, UniProt P27338)	200 nM

Input: // lookup IC80 for O=C(/C=C/c1ccc2c(c1)OCCO2)c1cccc(Cl)c1 [Compound 17]
Output: 280 nM

* * *

Recorded time after which the residual activity of hMAO-B began to increase by entry
Biological target: hMAO-B (Homo sapiens)
Sequence (P27338 1-520): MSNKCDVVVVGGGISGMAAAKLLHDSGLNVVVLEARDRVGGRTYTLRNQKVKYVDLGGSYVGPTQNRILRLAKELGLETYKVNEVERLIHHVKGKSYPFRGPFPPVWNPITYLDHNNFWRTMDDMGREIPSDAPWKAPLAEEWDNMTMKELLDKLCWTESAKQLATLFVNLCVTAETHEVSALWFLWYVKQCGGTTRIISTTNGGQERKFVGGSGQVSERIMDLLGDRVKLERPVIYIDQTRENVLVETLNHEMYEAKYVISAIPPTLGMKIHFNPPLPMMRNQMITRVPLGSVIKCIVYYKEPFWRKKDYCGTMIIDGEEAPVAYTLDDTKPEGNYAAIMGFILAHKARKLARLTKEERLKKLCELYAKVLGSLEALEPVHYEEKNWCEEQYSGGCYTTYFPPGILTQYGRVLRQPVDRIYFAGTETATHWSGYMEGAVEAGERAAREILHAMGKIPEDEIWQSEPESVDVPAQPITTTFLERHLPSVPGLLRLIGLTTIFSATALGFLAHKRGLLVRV
Assay: Reversibility study: time-dependent inhibition of hMAO-B
Assay type: biochemical
Details: inhibitor at IC80
I only need the number, in min, no unit after it.

// known answers, use as guide
Molecule	Unit Tag	Value Reported
C[C@H](NCc1ccc(OCc2cccc(F)c2)cc1)C(N)=O [safinamide, reference compound]	min	15
O=C(/C=C/c1ccc2c(c1)OCCO2)c1ccc(F)c(Br)c1 [Compound 22]	min	20
O=C(/C=C/c1ccc2c(c1)OCCO2)c1cccc(Br)c1 [Compound 16]	min	20

Input: Which value of time after which the residual activity of hMAO-B began to increase has been reported for O=C(/C=C/c1ccc2c(c1)OCCO2)c1cccc(Cl)c1 [Compound 17] in the records?
Output: 20

* * *

// values below are reported melting point

// solved cases for melting point follow
Smiles Data	melting point
O=C(/C=C/c1ccc2c(c1)OCCO2)c1ccc(O)cc1O	169.5 to 170.8 °C
O=C(/C=C/c1ccc2c(c1)OCCO2)c1cccc(Br)c1	119.3 to 120.4 °C
O=C(/C=C/c1ccc2c(c1)OCO2)c1cccc(Br)c1	111.8 to 112.6 °C

Continue with the compound presented below.
Input: What value of measured melting point is listed for "O=C(/C=C/c1ccc2c(c1)OCCO2)c1ccccc1Br" ?
Output: 70.3 to 72.2 °C

* * *

Experimental Readout: melting point

The following molecules have reported results that may help.
Molecule	melting point
O=C(/C=C/c1ccc2c(c1)OCCO2)c1cc(Cl)ccc1O [Compound 25]	136.2 to 137.3 °C
COc1ccc(C(=O)/C=C/c2ccc3c(c2)OCCO3)cc1 [Compound 8]	93.8 to 94.9 °C
O=C(/C=C/c1ccc2c(c1)OCCO2)c1cccc(O)c1 [Compound 9]	196.8 to 198.5 °C

Input: For the molecule shown here, O=C(/C=C/c1ccc2c(c1)OCCO2)c1ccc(C(F)(F)F)cc1 [Compound 21] , give the reported melting point.
Output: 139 to 140.2 °C

Input: Looking for the measured melting point of O=C(/C=C/c1ccc2c(c1)OCCO2)c1ccccc1F [Compound 12] , can you help?
Output: 93.7 to 95.4 °C

* * *

target: hMAO-A (Homo sapiens, UniProt P21397); assay: hMAO inhibition assay (Amplex Red fluorescence), hMAO-A, p-tyramine substrate; type: biochemical; settings: recombinant hMAO-A
Sequence (P21397 whole entry): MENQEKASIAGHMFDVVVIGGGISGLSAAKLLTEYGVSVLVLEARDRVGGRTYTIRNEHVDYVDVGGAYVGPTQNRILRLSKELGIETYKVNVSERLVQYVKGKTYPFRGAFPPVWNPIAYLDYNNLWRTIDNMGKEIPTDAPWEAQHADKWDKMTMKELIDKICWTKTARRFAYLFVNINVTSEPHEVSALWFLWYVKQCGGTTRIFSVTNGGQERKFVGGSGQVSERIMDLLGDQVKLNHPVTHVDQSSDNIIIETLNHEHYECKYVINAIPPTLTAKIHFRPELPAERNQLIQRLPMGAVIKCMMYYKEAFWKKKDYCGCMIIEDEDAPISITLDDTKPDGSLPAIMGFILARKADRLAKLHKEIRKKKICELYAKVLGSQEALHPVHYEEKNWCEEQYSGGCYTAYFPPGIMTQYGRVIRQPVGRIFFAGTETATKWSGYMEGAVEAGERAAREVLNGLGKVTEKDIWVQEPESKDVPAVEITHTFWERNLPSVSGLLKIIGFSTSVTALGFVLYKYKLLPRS
pIC50: −log10 of the molar value.
Reported pIC50 by item:

Example results:
Smiles Data	pIC50
O=C(/C=C/c1ccc2c(c1)OCO2)c1cccc(Br)c1	< 4.40
O=C(/C=C/c1ccc2c(c1)OCO2)c1ccccc1	< 4.40
O=C(/C=C/c1ccc2c(c1)OCCO2)c1cccc(Cl)c1	< 4.40
O=C(/C=C/c1ccc2c(c1)OCCO2)c1ccccc1Cl	< 4.40
O=C(/C=C/c1ccc2c(c1)OCCO2)c1ccccc1O	< 4.40

Consider the additional compound presented here.
Input: Can you look up pIC50 on hMAO-A (Homo sapiens, UniProt P21397) for "O=C(/C=C/c1ccc2c(c1)OCCO2)c1cc(Cl)ccc1O" ?
Output: < 4.40

* * *

Target: hMAO-B (Homo sapiens, UniProt P27338)
Sequence (P27338 1-520): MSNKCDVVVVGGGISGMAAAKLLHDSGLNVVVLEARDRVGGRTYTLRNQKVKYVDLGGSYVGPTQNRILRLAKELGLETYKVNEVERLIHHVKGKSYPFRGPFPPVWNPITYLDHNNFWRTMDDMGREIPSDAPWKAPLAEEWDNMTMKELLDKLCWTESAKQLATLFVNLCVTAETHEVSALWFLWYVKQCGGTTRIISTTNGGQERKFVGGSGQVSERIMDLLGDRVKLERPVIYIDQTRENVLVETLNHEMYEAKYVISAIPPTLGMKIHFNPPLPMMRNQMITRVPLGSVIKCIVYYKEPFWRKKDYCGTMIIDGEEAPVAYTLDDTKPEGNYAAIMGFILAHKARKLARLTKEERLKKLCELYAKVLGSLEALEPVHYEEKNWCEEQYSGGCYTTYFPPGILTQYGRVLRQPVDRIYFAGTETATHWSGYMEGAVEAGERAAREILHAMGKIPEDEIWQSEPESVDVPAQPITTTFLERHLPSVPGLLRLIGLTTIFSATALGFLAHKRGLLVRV
Assay: hMAO inhibition assay (Amplex Red fluorescence), hMAO-B, benzylamine substrate
Format: biochemical
Experimental Readout: pIC50
Reminder that pIC50 is minus the log10 of a molar concentration.

Input: Tell me the measured pIC50 of O=C(/C=C/c1ccc2c(c1)OCCO2)c1ccc(F)c(Br)c1 [Compound 22] , please.
Output: 7.59
